TEST SYSTEM: JAK1 (Homo sapiens (Human), UniProt P23458)
Sequence (P23458 875-1153): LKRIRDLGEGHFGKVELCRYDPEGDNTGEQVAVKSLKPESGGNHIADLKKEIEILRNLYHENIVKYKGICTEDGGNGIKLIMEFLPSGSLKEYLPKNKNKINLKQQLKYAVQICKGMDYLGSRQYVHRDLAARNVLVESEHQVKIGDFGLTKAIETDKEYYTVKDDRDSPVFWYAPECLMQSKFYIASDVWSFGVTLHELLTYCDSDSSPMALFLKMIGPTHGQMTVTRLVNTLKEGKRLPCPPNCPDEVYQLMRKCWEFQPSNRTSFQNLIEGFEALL
MEASUREMENT DESCRIPTION: Jak biochemical HTRF assay, JAK1
CONDITIONS: JAK1 IC50 (nM), recombinant GST-tagged catalytic domain, [ATP] 31.8 μM
REPORTED METRIC: IC50 (nM)

Some compounds with known IC50 results, for comparison:
N#CCC(C1CCCOC1)n1cc(C(N)=O)c(Nc2ccccc2)n1 (centres unmarked) [Example 1-15]: 501
N#CC[C@@H](C1CCN(C(=O)OCCN2CCOCC2)CC1)n1cc(C(N)=O)c(Nc2ccc(F)cc2)n1 [Example 11-13]: 753
CC(CC#N)(C1CC1)n1cc(C(N)=O)c(Nc2ccccc2)n1 (centres unmarked) [Example 1-18]: 195
CC(C)(C)OC(=O)N1CCC(F)(C(CC#N)n2cc(C(N)=O)c(Nc3ccccc3)n2)CC1 (centres unmarked) [Example 3-2]: 99
N#CCC(C1CC1)n1cc(C(N)=O)c(Nc2ccccc2)n1 (single isomer, unassigned) [Example 17-3]: 10
N#CC[C@@H](C1CCN(C(=O)OCC2CCOC2)CC1)n1cc(C(N)=O)c(Nc2ccc(F)cc2)n1 (some centres unmarked) [Example 11-12]: 181

1. COCC(C)OC(=O)N1CCC([C@H](CC#N)n2cc(C(N)=O)c(Nc3ccc(F)cc3)n2)CC1 (some centres unmarked) [Example 11-9]
2. Cc1c(Cl)ncnc1N1CCC([C@H](CC#N)n2cc(C(N)=O)c(Nc3ccc(F)cc3)n2)CC1 [Example 13]
Ask: Please choose the item with the lower IC50 value from this pair: 1 and 2 Write the label of whichever entry you select.
Result: 1
